# TEST NAME: Solubility of the compound in PBS by NMR method
# Format: physicochemical
READOUT: solubility

## Input // solubility lookup, key: `N=C(N)C1(c2cccc(Cl)c2)CCC1`
## Output ≥ 500 µM

---

# TEST NAME: Binding affinity to N-terminal thrombin-recognition site-fused His6-tagged human apolipoprotein E4 N-terminal domain without leader sequence (1 to 164 residues) expressed in Escherichia coli BL21-(DE3)-T1R cells by 13C-HSQC NMR spectroscopy
Exercise: state measured log10(Kd) for each of the compounds provided.
Hi team, quick reminder: these entries are log10 of Kd (µM).

Examples from the recorded data:
## Input // log10(Kd) lookup, key: `CCNS(=O)(=O)c1ccc(-c2cc(Cl)cc(C3(C(=N)N)CCC3)c2)cc1`
## Output 1.30

## Input // log10(Kd) lookup, key: `N=C(N)C1(c2cccc(Cl)c2)CCC1`
## Output 2.95

## Input // log10(Kd) lookup, key: `N=C(N)C1(c2cc(Cl)cc(-c3ccccc3)c2)CCC1`
## Output 2.36

## Input // log10(Kd) lookup, key: `CC(=O)NCc1ccc(-c2cc(Cl)cc(C3(C(=N)N)CCC3)c2)cc1`
## Output 1.30

## Input // log10(Kd) lookup, key: `CC(C)(O)c1ccc(-c2cc(Cl)cc(C3(C(=N)N)CCC3)c2)cc1`
## Output 1.48

***
## Input // log10(Kd) lookup, key: `N=C(N)C1(c2cc(Cl)cc(-c3ccc(CO)c(Cl)c3)c2)CCC1`
## Output 0.90
